tested on: A498 renal; test: NCI tumour cell line growth inhibition, 48 h
Criterion: TGI meeting or surpassing 5 µM. Met: satisfied. Not met: not satisfied.

>  <CPD_SMILES>
CCNNC(=O)[C@@H]1[C@H](c2cc(OC)c(OC)c(OC)c2)c2cc3c(cc2[C@H](O)[C@H]1CO)OCO3

>  <CLASS_ASSIGNMENT>
not satisfied

$$$$
>  <CPD_SMILES>
CCN(CC)CCn1c2ccc(OC)cc2c2sc3cc(OC)ccc3c(=O)c21

>  <CLASS_ASSIGNMENT>
not satisfied

$$$$
>  <CPD_SMILES>
COc1ccc2c(CCNC(=O)/C=C/c3ccccc3)c(C(C)=O)[nH]c2c1[N+](=O)[O-]

>  <CLASS_ASSIGNMENT>
satisfied

$$$$

Moving on to the next compound.
Lookup: Could you please find out whether "CNC1=C(C(=O)OC)SC(c2ccccc2)(c2ccccc2)SC1" has TGI that meets 5 µM or exceeds it?
Found: satisfied

====

Assignment: determine reported TGI for the given compounds.
system: NCI-H226 lung; assay: NCI tumour cell line growth inhibition, 48 h
Answers are plain numbers, in µM.

>  <CPD_SMILES>
O=[N+]([O-])c1cccc(Cl)c1Oc1ccc(S(=O)(=O)/N=C(\NO)Nc2ccc(Cl)cc2)cc1

>  <TEST_VALUE>
44.4

$$$$
>  <CPD_SMILES>
CC1=CCC[C@H]2[C@](C)(CC3=CC(=O)C(Sc4ccccc4)=CC3=O)[C@@H](C)CC[C@]12C

>  <TEST_VALUE>
27.8

$$$$

Input "O=C(CNc1ccc2c(=S)c3ccccc3[nH]c2c1)Nc1ccccc1-c1ccccc1NC(=O)CNc1ccc2c(=S)c3ccccc3[nH]c2c1" . Output TGI: 54.6

====

Task for the reader: assign each of the following compounds its reported GI50.
system: NCI/ADR-RES ovarian; experiment: NCI tumour cell line growth inhibition, 48 h

Items follow; give GI50 for each.
1. CCN(CC)CCOC(=O)Cc1cccc2c(=O)cc(-c3ccccc3)oc12
2. COc1ccc(-c2ccc(-c3ccc(C(=N)N)cn3)o2)cc1Cl
3. COc1cc2c3c(n(CCCBr)c(=O)c2cc1OC)-c1ccc(F)cc1C3=O
4. O=C(COc1cccc(/C=C2\Oc3ccc4ccccc4c3C2=O)c1)c1ccc(Cl)cc1
5. NCCCN1CCN(CCCNc2nc3ccccc3c3[nH]c4ccccc4c23)CC1
6. N#C/C(=C\c1c(-c2ccccc2)[nH]c2ccccc12)C(=O)c1ccccc1

Found:
["123 µM", "2.56 µM", "13.3 µM", "> 100 µM", "3.1 µM", "3.11 µM"]

Lab note: measured GI50 of "C=C(CNC(=O)c1ccccc1)c1ccc(C(=O)Nc2ccccc2N)cc1" was 2.35 µM

====

tested on: KM20L2 colon; test: NCI tumour cell line growth inhibition, 48 h
PROPERTY_NAME: TGI

Solved cases (3 shown):
>  <COMPOUND>
O=C(Nc1ccc(Br)cc1)C(=O)C(C(=O)c1ccccc1F)C1OC(=O)c2ccccc21 (configuration not stated)

>  <TGI>
> 100 µM

$$$$
>  <COMPOUND>
CC(=O)/C=C1\CC(=O)Nc2ccccc2N1

>  <TGI>
> 100 µM

$$$$
>  <COMPOUND>
CCOC(=O)N1C(c2ccccc2)C=CC(c2ccccc2)N1C(=O)OCC (configuration not stated)

>  <TGI>
> 100 µM

$$$$

# per-item lookup of TGI; items listed below
1. O=C(Nc1nc2ccc([N+](=O)[O-])cc2s1)C(=O)C(C(=O)c1ccncc1)C1OC(=O)c2ccccc21 (configuration not stated)
2. NCc1c(C(N)=O)ncn1Cc1ccccc1
3. Cc1ccc(C=NC23CC4CC(CC(C4)C2)C3)cc1
4. CS(=O)(=O)N(CCC#N)c1ccc(C=O)cc1

Found:
> 100 µM
> 100 µM
> 100 µM
> 100 µM

====

system: SK-MEL-5 melanoma; test: NCI tumour cell line growth inhibition, 48 h; in the data active = GI50 below about 0.43 µM; inactive = the rest
Respond with a class label; see class 1 = active, class 0 = inactive

>  <COMPOUND>
CCN(CC)CCn1c2ccc(OC)cc2c2sc3cc(OC)ccc3c(=O)c21

>  <SYSTEM_NAME>
SK-MEL-5 melanoma

>  <CLASS_ASSIGNMENT>
class 0

$$$$
>  <COMPOUND>
COc1ccc(Cn2cc3c(c2-c2cc(OC)c(OC)c(OC)c2)CCc2cnoc2-3)cc1N

>  <SYSTEM_NAME>
SK-MEL-5 melanoma

>  <CLASS_ASSIGNMENT>
class 1

$$$$
>  <COMPOUND>
C=C1C(OC/C=C/COC2O[C@@H]3O[C@@]4(C)CC[C@H]5[C@H](C)CC[C@@H](C2=C)[C@@]35OO4)O[C@@H]2O[C@@]3(C)CC[C@H]4[C@H](C)CC[C@@H]1[C@@]24OO3 (stereo partly drawn)

>  <SYSTEM_NAME>
SK-MEL-5 melanoma

>  <CLASS_ASSIGNMENT>
class 0

$$$$
>  <COMPOUND>
O=c1oc2c3ccc4cnccc4c3[nH]c2c2ccccc12

>  <SYSTEM_NAME>
SK-MEL-5 melanoma

>  <CLASS_ASSIGNMENT>
class 0

$$$$
>  <COMPOUND>
Cc1ccc(Nc2cc(C)nc(NCCCNc3ccnc4cc(Cl)ccc34)n2)cc1

>  <SYSTEM_NAME>
SK-MEL-5 melanoma

>  <CLASS_ASSIGNMENT>
class 0

$$$$

Lookup: Outcome logged for "CC(C)C[C@H](NC(=O)[C@@H](NC(=O)c1cccc(-c2ccccc2)n1)[C@@H](C)O)B(O)O" in this assay:
Found: class 1

Lookup: Which outcome was assigned to "CCNNC(=O)[C@@H]1[C@H](c2cc(OC)c(OC)c(OC)c2)c2cc3c(cc2[C@H](O)[C@H]1CO)OCO3" in this test?
Found: class 1

Lookup: Could you check what this test reported for COc1cccc(C2SC(C)C(=O)N2CCc2cccs2)c1 (stereo not drawn) ?
Found: class 0

====

system: HL-60(TB) leukemia; test: NCI tumour cell line growth inhibition, 48 h
PROPERTY_NAME: TGI

These solved cases illustrate the format of a correct answer.
>  <MOLECULE>
O=C(O)c1ccccc1N=Nc1ccc2oc(=O)c(C(=O)Nc3ccccc3)cc2c1

>  <TGI>
66.9 µM

$$$$
>  <MOLECULE>
COC(=O)c1cccc(OC)c1C#Cc1c(OC)cccc1OC

>  <TGI>
> 100 µM

$$$$
>  <MOLECULE>
Cc1cc2oc(C)c(S(=O)(=O)NC(=O)Nc3ccc(Cl)cc3)c(=O)c2c(=O)o1

>  <TGI>
> 100 µM

$$$$
>  <MOLECULE>
COc1ccccc1C1(C)SCc2nc3ccccc3n21 (stereo unspecified)

>  <TGI>
> 10 µM

$$$$
>  <MOLECULE>
O=C(Nc1ccc(Br)cc1)C(=O)C(C(=O)c1ccccc1F)C1OC(=O)c2ccccc21 (stereo unspecified)

>  <TGI>
75.6 µM

$$$$
>  <MOLECULE>
Cn1cnc2c(F)c(Nc3ccc(Br)cc3F)c(C(=O)NOCCO)cc21

>  <TGI>
> 100 µM

$$$$
>  <MOLECULE>
Cc1cc(N2CCCC2)c([N+](=O)[O-])cc1[N+](=O)[O-]

>  <TGI>
> 100 µM

$$$$
>  <MOLECULE>
CCOC(=O)C(=CN1CCNC1=S)C(=O)OCC

>  <TGI>
> 100 µM

$$$$
>  <MOLECULE>
Cc1cc(C)c(S(=O)(=O)N(CCc2cccc(Br)c2)Cc2ccc(-c3cccc(S(C)(=O)=O)c3)cc2)c(C)c1

>  <TGI>
> 100 µM

$$$$
>  <MOLECULE>
Cc1ncc(CCl)c(CCl)c1O

>  <TGI>
> 100 µM

$$$$

// next entry
Form field TGI, entry "Cc1c2ccccc2c(C)n2c1nc1ccccc12" : > 100 µM

====

tested on: SK-OV-3 ovarian; assay: NCI tumour cell line growth inhibition, 48 h
Assign TGI to each entry below.

>  <COMPOUND>
Cc1c(O)c(OC2OC(CO)C(O)C(O)C2O)cc2c1C=C[C@@H]1[C@@]2(C)C(=O)C[C@]2(C)[C@@H]([C@@](C)(O)C(=O)CCC(C)(C)O)[C@H](O)C[C@@]12C (stereo not given in full)

>  <SYSTEM_NAME>
SK-OV-3 ovarian

>  <TGI>
42.1 µM

$$$$
>  <COMPOUND>
Cc1c(-c2nnc(-c3ccccc3)o2)c(=O)n(-c2ccccc2)n1C

>  <SYSTEM_NAME>
SK-OV-3 ovarian

>  <TGI>
> 100 µM

$$$$
>  <COMPOUND>
O=C(O)CCc1ccc2c(c1)CC1(Cc3ccccc3C1)C2

>  <SYSTEM_NAME>
SK-OV-3 ovarian

>  <TGI>
> 100 µM

$$$$
>  <COMPOUND>
Cn1cnc2c(F)c(Nc3ccc(Br)cc3F)c(C(=O)NOCCO)cc21

>  <SYSTEM_NAME>
SK-OV-3 ovarian

>  <TGI>
> 100 µM

$$$$

Then there is this compound:
Consider "Nc1cc(S(N)(=O)=O)ccc1SSc1ccc(S(N)(=O)=O)cc1N" . Its measured TGI is > 100 µM
